Source of measurements: PubChem BioAssay (EPA / NIEHS)

Read-out: growth arrest and DNA damage 45 (GADD45A), GADD45A (gene 1647)
Experiment: LTEA_HepaRG_GADD45A: Life Technologies and Expression Analysis (LTEA) Assay for growth arrest and DNA damage 45 (GADD45A) using HepaRG (AID 2283458)
Conditions: mRNA level, 48 h; actives raise or lower the signal
The source made the active and inactive calls. The calls were made as follows: active = hit-call score of the fitted dose curve at least 0.9, where 1 is the maximum; inactive = score below 0.9.
Entry note: the call must match one of true (1) (active), false (0) (inactive)

Example cases with answers are listed next.
- Molecule: "S=C([S-])NCCNC(=S)[S-].[Mn+2]"
  Class: "true (1)"
- Molecule: "c1ccc2[nH]c(-c3cscn3)nc2c1"
  Class: "false (0)"
- Molecule: "CC(=O)[C@H]1CC[C@H]2[C@@H]3CCC4=CC(=O)CC[C@]4(C)[C@H]3CC[C@]12C"
  Class: "true (1)"

In this assay, the call recorded for `Oc1ccc(C(c2ccc(O)cc2)C(Cl)(Cl)Cl)cc1` was what?
true (1)

Kindly provide the recorded test outcome for the following molecule: `O=C(c1ccc(O)cc1O)c1ccc(O)cc1O`
false (0)

Name the outcome recorded for `C[C@]12C[C@H](O)[C@H]3[C@@H](CCC4=CC(=O)CC[C@@]43C)[C@@H]1CC[C@@H]2C(=O)CO` in the assay.
false (0)

Per the assay record, what outcome was assigned to `CCOC(=O)NCCOc1ccc(Oc2ccccc2)cc1` ?
true (1)

Test call for this molecule, please: CCCCC(CC)CN1C(=O)C2C3C=CC(C3)C2C1=O (configuration not stated)
false (0)
